# Test system: B16-F10
# ASSAY_DETAILS: Antiproliferative activity against mouse B16-F10 cells assessed as inhibition of cell growth after 24 to 72 hrs by MTT assay
# Format: functional, cell-based
OBSERVABLE: pIC50
The scale used: pIC50 is minus the common logarithm of the concentration in molar units.

## Input Could you share which pIC50 value was measured for CC[N+]1=C(/C=C/C2=C(Cl)C(=C/C=C3\N(CCCCCC(=O)O/C(=N/C4CCCCC4)NC4CCCCC4)c4ccccc4C3(C)C)/CCC2)C(C)(C)c2ccccc21.[Br-] ?
## Output 6.39

====

# ASSAY_DETAILS: Cytotoxicity against mouse B16-F10 cells assessed as cell viability at 40 uM incubated for 24 hrs by MTT assay
# Type: toxicity, cell-based
# CONDITION_LABEL: read-out: Activity
OBSERVABLE: viability at 24 h, 40 µM (%)
Unit % implied. Number only.

## Input Could you share which viability at 24 h, 40 µM value was measured for CC[N+]1=C(/C=C/C2=C(Cl)C(=C/C=C3\N(CCCCCC(=O)O/C(=N/C4CCCCC4)NC4CCCCC4)c4ccccc4C3(C)C)/CCC2)C(C)(C)c2ccccc21.[Br-] ?
## Output 90
